Target: calcium calmodulin dependent protein kinase
Assay: Calcium Calmodulin Dependent Protein Kinase Assay (CAM)
Settings: Table 1
pIC50: −log10 of the molar value. Counter-ions that a name gives are not always drawn.
Attribute: pIC50
quantityMeasured: pIC50

[
  {
    "compound": "O=C1NC(=O)C2=C1c1cn(c3ccccc13)CCO[C@H](CN1CCCC1)CCn1cc2c2ccccc21 [Example 20s]",
    "assayValue": 5.17
  },
  {
    "compound": "NCC1CCCn2cc(c3ccccc32)C2=C(C(=O)NC2=O)c2cn(c3ccccc23)CC1 (stereo not shown) [Example 33]",
    "assayValue": 6.22
  },
  {
    "compound": "O=C(NC[C@H]1CCn2cc(c3ccccc32)C2=C(C(=O)NC2=O)c2cn(c3ccccc23)CCO1)OCc1ccccc1 [Example 25r]",
    "assayValue": 4.66
  },
  {
    "compound": "NCC1CCn2cc(c3ccccc32)C2=C(C(=O)NC2=O)c2cn(c3ccccc23)CCO1 (stereo not shown) [Example 4, trifluoroacetate salt]",
    "assayValue": 5.52
  }
]
